Test system: HEK-293T
assay text: Multiplex assay against HEK293T
Assay type: toxicity, cell-based
experimental setup: human, 48 h, 10 µM, compound concentration 10 uM, replicate 1
So I've got a bunch of compounds here, and I need their Population Normal (%) values.
Answers are plain numbers, in %.

Example cases with answers are listed next.
Using the record for O=C(Cc1ccc(-c2ccc(OCCN3CCOCC3)cc2)cn1)NCc1ccccc1 , state its measured Population Normal (%).
82

Answer with reported Population Normal (%) of CN1C2CCC1CC(OC(c1ccc(F)cc1)c1ccc(F)cc1)C2.Cl (stereo not given)
78

Please list Population Normal (%) recorded for the compound Cc1ccc(C(=O)Nc2cccc(C(F)(F)F)c2)cc1Nc1nc(-c2cccnc2)nc2c1cnn2C
79

Please list Population Normal (%) recorded for the compound CN1CCN(C(=O)C(C)(C)c2ccc(C(=O)Nc3cn4cc(-c5ccncc5)ccc4n3)cc2)CC1
81

Now look at this entry.
Answer with reported Population Normal (%) of C=C1/C(=C\C=C2/CCC[C@]3(C)[C@@H]([C@H](C)/C=C/[C@H](C)C(C)C)CC[C@@H]23)C[C@@H](O)C[C@@H]1O
82
